# target_system: T1, C3G (full-length, residues 4-1077) (human, UniProt Q13905-1 4-1077)
# T1 construct: also called C3G WT; RapGEF1; source: E. coli BL21 (DE3), purified (IMAC, TEV digestion, reversed IMAC, SEC); not shown: His, N-terminal, cleaved; Halo, N-terminal, cleaved
# T1 sequence (looked up): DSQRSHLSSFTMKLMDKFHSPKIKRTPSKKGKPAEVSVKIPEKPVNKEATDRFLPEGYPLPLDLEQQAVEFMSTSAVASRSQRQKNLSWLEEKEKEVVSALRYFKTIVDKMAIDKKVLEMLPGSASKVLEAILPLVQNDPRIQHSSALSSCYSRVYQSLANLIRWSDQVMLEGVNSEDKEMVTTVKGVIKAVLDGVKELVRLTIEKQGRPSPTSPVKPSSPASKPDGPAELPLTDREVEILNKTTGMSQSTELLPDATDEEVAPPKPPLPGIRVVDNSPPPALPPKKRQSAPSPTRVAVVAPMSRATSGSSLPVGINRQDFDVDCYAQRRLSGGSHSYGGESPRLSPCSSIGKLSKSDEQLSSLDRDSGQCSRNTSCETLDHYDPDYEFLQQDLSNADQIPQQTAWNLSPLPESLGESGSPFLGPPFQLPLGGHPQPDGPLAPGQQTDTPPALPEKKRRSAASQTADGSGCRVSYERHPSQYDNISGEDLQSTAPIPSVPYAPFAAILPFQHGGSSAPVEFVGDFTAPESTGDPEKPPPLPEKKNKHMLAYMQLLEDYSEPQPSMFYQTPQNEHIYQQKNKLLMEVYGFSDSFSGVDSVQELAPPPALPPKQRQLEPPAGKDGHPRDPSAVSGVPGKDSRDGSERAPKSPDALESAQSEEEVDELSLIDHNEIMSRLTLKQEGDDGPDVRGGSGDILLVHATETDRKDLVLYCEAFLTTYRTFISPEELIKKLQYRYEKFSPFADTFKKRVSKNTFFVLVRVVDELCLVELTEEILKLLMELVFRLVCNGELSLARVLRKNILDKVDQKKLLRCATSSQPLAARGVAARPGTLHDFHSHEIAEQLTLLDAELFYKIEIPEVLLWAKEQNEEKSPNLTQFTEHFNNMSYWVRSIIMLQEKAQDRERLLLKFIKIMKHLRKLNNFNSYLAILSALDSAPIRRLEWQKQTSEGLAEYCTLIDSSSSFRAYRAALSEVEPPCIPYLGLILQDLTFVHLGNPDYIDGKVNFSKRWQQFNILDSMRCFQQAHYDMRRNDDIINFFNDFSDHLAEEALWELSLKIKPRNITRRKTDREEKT
# procedure_details: ITC; C3G or pC3G in the cell titrated with the Crk protein, 25 °C, 300 mM NaCl, pH 7.5; global fit of three titrations with SEDPHAT, three symmetric binding sites, microscopic kd
# applied_conditions: both partners purified
quantity_name: Kd (nM)
Write the value in nM as a bare number.

Ask: Entry under review: CrkL-SH3N (domain or fragment, human, UniProt P46109 125-182, looked up, human CrkL, SH3N domain, residues 125-182, in pETEV15b; source: E. coli BL21 (DE3), purified (IMAC, TEV digestion, SEC); not shown: His, N-terminal, cleaved) LEYVRTLYDFPGNDAEDLPFKKGEILVIIEKPEEQWWSARNKDGRVGMIPVPYVEKLV . Reported Kd?
Reply: 1600

Ask: Field request: Kd | item: CrkL-SH3N-SH3C (domain or fragment, human, UniProt P46109 125-303, looked up, human CrkL, SH3N-SH3C, residues 125-303, in pETEV15b; source: E. coli BL21 (DE3), purified (IMAC, TEV digestion, SEC); not shown: His, N-terminal, cleaved) LEYVRTLYDFPGNDAEDLPFKKGEILVIIEKPEEQWWSARNKDGRVGMIPVPYVEKLVRSSPHGKHGNRNSNSYGIPEPAHAYAQPQTTTPLPAVSGSPGAAITPLPSTQNGPVFAKAIQKRVPCAYDKTALALEVGDIVKVTRMNINGQWEGEVNGRKGLFPFTHVKIFDPQNPDENE
Reply: 1100

Ask: For the binder CrkII (full-length) (natural protein, human, UniProt P46108-1 1-304, looked up, human CrkII, residues 1-304, in pETEV15b; source: E. coli BL21 (DE3), purified (IMAC, TEV digestion, SEC); not shown: His, N-terminal, cleaved) MAGNFDSEERSSWYWGRLSRQEAVALLQGQRHGVFLVRDSSTSPGDYVLSVSENSRVSHYIINSSGPRPPVPPSPAQPPPGVSPSRLRIGDQEFDSLPALLEFYKIHYLDTTTLIEPVSRSRQGSGVILRQEEAEYVRALFDFNGNDEEDLPFKKGDILRIRDKPEEQWWNAEDSEGKRGMIPVPYVEKYRPASASVSALIGGNQEGSHPQPLGGPEPGPYAQPSVNTPLPNLQNGPIYARVIQKRVPNAYDKTALALEVGELVKVTKINVSGQWEGECNGKRGHFPFTHVRLLDQQNPDEDFS , what Kd is on record?
Reply: 2700

Ask: Looking for the measured Kd of CrkL-SH2-SH3N (domain or fragment, human, UniProt P46109 1-182, looked up, human CrkL, SH2-SH3N, residues 1-182, in pETEV15b; also called CrkL-SH2N-SH3N; source: E. coli BL21 (DE3), purified (IMAC, TEV digestion, SEC); not shown: His, N-terminal, cleaved) MSSARFDSSDRSAWYMGPVSRQEAQTRLQGQRHGMFLVRDSSTCPGDYVLSVSENSRVSHYIINSLPNRRFKIGDQEFDHLPALLEFYKIHYLDTTTLIEPAPRYPSPPMGSVSAPNLPTAEDNLEYVRTLYDFPGNDAEDLPFKKGEILVIIEKPEEQWWSARNKDGRVGMIPVPYVEKLV , can you help?
Reply: 2200

src = paper PMC9896810
